Target sequence: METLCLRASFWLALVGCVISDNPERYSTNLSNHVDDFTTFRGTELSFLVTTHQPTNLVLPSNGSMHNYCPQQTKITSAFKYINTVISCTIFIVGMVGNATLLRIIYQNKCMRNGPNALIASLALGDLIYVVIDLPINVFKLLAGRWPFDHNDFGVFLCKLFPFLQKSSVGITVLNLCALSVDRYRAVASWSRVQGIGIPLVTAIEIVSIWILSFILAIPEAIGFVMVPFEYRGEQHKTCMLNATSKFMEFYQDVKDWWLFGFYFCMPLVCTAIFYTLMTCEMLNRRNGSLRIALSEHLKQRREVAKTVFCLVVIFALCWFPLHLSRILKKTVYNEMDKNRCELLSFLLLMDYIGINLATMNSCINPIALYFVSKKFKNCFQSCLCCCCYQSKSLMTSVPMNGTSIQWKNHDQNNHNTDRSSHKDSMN
Reported IC50 values follow for various molecules
Form entry: value (nM) — number only.

Data point: `COc1ccc([C@@H]2c3nc(C4CC4)ccc3[C@H](c3ccc4c(c3)OCO4)[C@H]2C(=O)O)cc1` ; IC50 = 1.6

Data point: CCNCc1ccc2c(n1)[C@@H](c1ccc(OC)cc1)[C@H](C(=O)O)C2c1ccc2c(c1)OCO2 (single isomer, unassigned) ; IC50 = 7

Data point: `CCc1ccc2c(n1)[C@@H](c1ccc(OC)cc1)[C@H](C(=O)O)[C@H]2c1ccc2c(c1)OCO2` ; IC50 = 4.5
